Target: Human α-thrombin (Homo sapiens, UniProt P00734)
pKi: −log10 of the molar value.
readout-label: pKi

{"compound": "Cc1cccc(S(=O)(=O)Nc2ccc(C)n(CC(=O)NC3CCN(C(=N)N)OC3)c2=O)c1 (stereo not shown)", "measurement": 9.42}

Data credit: patent US6326492A
